TARGET OF ASSAY: human ether-à-go-go-related gene (hERG) potassium channel (human);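 also: peak tail current of the secondary pulse compared with the same well before compound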
Sequence (Q12809 whole entry, looked up): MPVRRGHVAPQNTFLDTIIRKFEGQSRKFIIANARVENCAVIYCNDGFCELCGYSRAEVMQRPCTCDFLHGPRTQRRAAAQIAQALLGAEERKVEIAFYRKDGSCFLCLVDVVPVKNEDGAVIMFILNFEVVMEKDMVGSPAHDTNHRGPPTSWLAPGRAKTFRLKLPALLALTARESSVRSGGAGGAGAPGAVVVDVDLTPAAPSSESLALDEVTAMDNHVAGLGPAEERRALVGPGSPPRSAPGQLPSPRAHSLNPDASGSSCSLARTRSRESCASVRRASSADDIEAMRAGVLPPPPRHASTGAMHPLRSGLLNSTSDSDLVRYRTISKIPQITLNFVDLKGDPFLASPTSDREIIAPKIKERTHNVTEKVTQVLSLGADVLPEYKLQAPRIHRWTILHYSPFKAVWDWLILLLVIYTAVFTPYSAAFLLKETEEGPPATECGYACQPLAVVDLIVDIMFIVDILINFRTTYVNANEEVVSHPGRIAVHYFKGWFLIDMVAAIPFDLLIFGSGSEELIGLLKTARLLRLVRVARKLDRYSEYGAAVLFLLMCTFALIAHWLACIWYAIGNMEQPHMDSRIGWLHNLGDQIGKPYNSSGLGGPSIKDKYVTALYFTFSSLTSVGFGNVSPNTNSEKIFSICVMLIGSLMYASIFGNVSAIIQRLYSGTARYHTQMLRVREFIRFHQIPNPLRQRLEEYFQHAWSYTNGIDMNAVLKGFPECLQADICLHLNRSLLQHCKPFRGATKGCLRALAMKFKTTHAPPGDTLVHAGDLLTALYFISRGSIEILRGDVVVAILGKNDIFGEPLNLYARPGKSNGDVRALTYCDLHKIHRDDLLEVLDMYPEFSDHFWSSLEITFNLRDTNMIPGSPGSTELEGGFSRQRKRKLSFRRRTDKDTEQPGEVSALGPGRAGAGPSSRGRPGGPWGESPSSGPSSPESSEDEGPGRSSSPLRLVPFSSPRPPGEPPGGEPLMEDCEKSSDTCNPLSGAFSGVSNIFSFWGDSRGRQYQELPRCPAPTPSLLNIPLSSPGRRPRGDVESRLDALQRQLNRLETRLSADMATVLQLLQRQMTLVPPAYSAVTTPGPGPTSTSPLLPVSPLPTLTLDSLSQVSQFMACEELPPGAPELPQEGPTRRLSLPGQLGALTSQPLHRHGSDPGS
PROTOCOL DESCRIPTION: primary screen, population patch clamp on CHO cells stably expressing hERG; higher = less effect of the substance
The campaign covered roughly 310,000 compounds. About 14,000 (4.5%) showed an effect of 50% or more. Effects have a minus sign here. The sample holds strong results, similar compounds and a random draw of the others, so the mix is not that of the screen.
Lab note: compare hERG current change (%, negative = inhibition) at 10uM against -50%. Equal or greater, write condition met. Smaller, write condition not met.

>  <COMPOUND>
O=S(=O)(NCC1(N2CCOCC2)CCCCC1)c1ccc(Cl)cc1C(F)(F)F

>  <CLASSIFICATION>
condition met

$$$$
>  <COMPOUND>
CN(CC(=O)N1CCN(c2ccccn2)CC1)S(=O)(=O)c1ccccc1

>  <CLASSIFICATION>
condition met

$$$$
>  <COMPOUND>
CCOC(=O)c1c(NC(=O)c2cccs2)sc(C)c1C

>  <CLASSIFICATION>
condition met

$$$$
>  <COMPOUND>
Cc1ccc(C)c(N2CCN(CCCNC(=O)Cn3cccc3C(=O)c3ccccc3)CC2)c1

>  <CLASSIFICATION>
condition not met

$$$$
>  <COMPOUND>
COc1ccccc1C(CNC(=O)c1cccc(S(=O)(=O)Nc2ccc(C)cc2)c1)N1CCCC1 (stereo not shown)

>  <CLASSIFICATION>
condition met

$$$$
>  <COMPOUND>
CN(CC(=O)N1CCN(c2ccc(F)cc2)CC1)S(=O)(=O)c1ccc(F)cc1

>  <CLASSIFICATION>
condition not met

$$$$
>  <COMPOUND>
Nc1ncc(Br)cc1S(=O)(=O)NCCC(=O)N1CCN(c2ccccc2)CC1

>  <CLASSIFICATION>
condition met

$$$$
>  <COMPOUND>
Cc1ccc(CNC(=O)Cn2cccc2C(=O)c2ccccc2C)cc1

>  <CLASSIFICATION>
condition met

$$$$
>  <COMPOUND>
CCOC(=O)c1sc(NC(=O)CCN2CCOCC2)c(C(=O)OCC)c1C

>  <CLASSIFICATION>
condition met

$$$$
>  <COMPOUND>
C=CCN(c1ccccc1)S(=O)(=O)c1cccc(C(=O)NCC(c2ccccc2OC)N2CCCC2)c1 (stereo not shown)

>  <CLASSIFICATION>
condition not met

$$$$
>  <COMPOUND>
CCOC(=O)c1sc(NC(=O)CCN2CCCCCC2)c(C(=O)OCC)c1C

>  <CLASSIFICATION>
condition met

$$$$
>  <COMPOUND>
CCOC(=O)c1sc(NC(=O)CCN2CCN(CC)CC2)c(C(=O)OCC)c1C

>  <CLASSIFICATION>
condition not met

$$$$
>  <COMPOUND>
COc1ccccc1N1CCN(Cc2ccc(SC)cc2)CC1.O=C(O)C(=O)O

>  <CLASSIFICATION>
condition not met

$$$$
>  <COMPOUND>
CCOC(=O)c1sc(NC(=O)CCN2CCN(C)CC2)c(C(=O)OCC)c1C

>  <CLASSIFICATION>
condition not met

$$$$
>  <COMPOUND>
COc1ccc(NS(=O)(=O)c2cccc(C(=O)NCC(c3ccccc3OC)N3CCCC3)c2)cc1 (stereo not shown)

>  <CLASSIFICATION>
condition not met

$$$$
>  <COMPOUND>
CCOC(=O)c1c(NC(=O)c2cccs2)sc(C(=O)N2CCOCC2)c1C

>  <CLASSIFICATION>
condition not met

$$$$
>  <COMPOUND>
CCOC(=O)c1c(-c2ccc(OC)cc2)csc1NC(=O)CCN1CCOCC1

>  <CLASSIFICATION>
condition not met

$$$$
>  <COMPOUND>
CN(CC(=O)N1CCN(c2ccccn2)CC1)S(=O)(=O)c1ccc(Cl)cc1

>  <CLASSIFICATION>
condition met

$$$$

Where these numbers come from: paper PMC4336329
